Source of measurements: paper PMC12392461

Tested on: MCF7 (ARE/MMP)
Conditions: MMP bioassay cytotoxicity; dosing range all; linear model
endpoint_name: IC10, linear

INSERT INTO measurements (compound, endpoint_name, value_measured) VALUES
  ('CC1(C)[C@H](O)C(C)(C)[C@H]1O [Trans TMCD]', 'IC10, linear', 'no cytotoxicity'),
  ('Cc1ccc(S(=O)(=O)NC(=O)Nc2cccc(OS(=O)(=O)c3ccc(C)cc3)c2)cc1', 'IC10, linear', 'no cytotoxicity'),
  ('CC1(C)C(O)C(C)(C)C1O (racemic)', 'IC10, linear', 'no cytotoxicity'),
  ('Cc1ccc(S(=O)(=O)NC(=O)Nc2ccc(Cc3ccc(NC(=O)NS(=O)(=O)c4ccc(C)cc4)cc3)cc2)cc1', 'IC10, linear', 'no cytotoxicity');
